- ASSAY NOTES: Cytotoxicity assays
- Format: cell-based
PARAMETER: selectivity ratio

| MOLECULE | PARAMETER | RESULT |
| --- | --- | --- |
| COC(=O)/C=C/C(=O)c1ccc(F)cc1 [Compound 2b] | selectivity ratio | > 20 |
| COC(=O)/C=C/C(=O)c1ccc(Cl)cc1 [Compound 3b] | selectivity ratio | > 20 |

Taken from paper PMC3259734.
